# EXPERIMENT NOTES: PS and metabolites in proximal and distal half of the sciatic nerve of mice with paclitaxel-induced PN
# Type: in vivo, mouse
# CONDITION DESCRIPTION: mouse, in vivo, Proximal half of the sciatic nerve, μM, mean ± SEM
# Method: In a separate experiment we studied 8 mice with paclitaxel-induced PN treated with PS 8% ointment 3×/d for 2 wks. Mice were euthanized as above 30 minutes after the last dose of PS. From these mice we harvested both sciatic nerves dividing each into proximal and distal halves, and combined the corresponding halves of every two animals for assay of drug levels.
TEST READOUT: concentration at 30 min

1) CSc1ccc(/C=C2/C(C)=C(CC(=O)O)c3cc(F)ccc32)cc1 [Sulindac sulfide, sulindac sulfide] : 0 µM

Q. If you can, please state the reported concentration at 30 min value of CC1=C(CC(=O)O)c2cc(F)ccc2/C1=C\c1ccc([S+](C)[O-])cc1 (centres unmarked) [Sulindac, sulindac, reference compound] .
A. 0.4 µM

The values you see were collected from patent US12295964B2.
